Where do these numbers come from? They come from patent US20080287445A1.

Could you please report measured IC50 for the items listed next?
study.system: GPR73 (prokineticin 1 receptor) (Homo sapiens, UniProt Q8TCW9)
Sequence (Q8TCW9 whole entry, species assumed): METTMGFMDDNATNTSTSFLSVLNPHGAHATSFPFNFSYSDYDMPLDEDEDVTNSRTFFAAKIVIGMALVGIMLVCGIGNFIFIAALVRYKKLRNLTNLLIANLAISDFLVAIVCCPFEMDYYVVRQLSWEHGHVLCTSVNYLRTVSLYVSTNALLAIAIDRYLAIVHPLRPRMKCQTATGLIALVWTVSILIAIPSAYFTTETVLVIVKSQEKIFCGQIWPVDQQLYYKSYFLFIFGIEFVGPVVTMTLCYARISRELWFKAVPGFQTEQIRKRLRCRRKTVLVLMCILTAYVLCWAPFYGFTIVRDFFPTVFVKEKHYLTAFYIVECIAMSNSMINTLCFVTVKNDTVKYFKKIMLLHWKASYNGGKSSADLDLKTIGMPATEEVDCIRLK
protocol.details: PK1 functional assay: Ca2+ mobilization screening for PK1 antagonists on the FLIPR
cond: HEK 293 GPR73 cells; PK1 ligand preparation at its EC50; multiple values = multiple testing; read-out: Ca^2+ Mobilization IC50
Procedure: At a time of 24 h prior to running the assay, in cell culture media (DMEM containing high Glucose and L-glutamine, 10% FBS, 1% Pen/Streptomycin, 1% Sodium Pyruvate, 20 mM HEPES, Zeocin 200 mg/L), 100 μL of 1.3*10^6/ml HEK 293 GPR73 (prokineticin 1 receptor) expressing cells were plated in a 96 well poly-d-lysine coated plate (Costar), and incubated at 37 C and 5% CO2. […] Baseline is described as the amount of relative fluorescence read when buffer alone is added to cells. […]
// note: answer is a bare numeric in µM

Would you kindly share the measured IC50 for COc1ccc(Cn2c(=O)nc(NCc3cnc(C)cc3C)n(Cc3ccncc3)c2=O)cc1 ? 3.3

Give its IC50 value. Item: Nc1cccc(CNc2nc(=O)n(Cc3ccc(F)cc3)c(=O)n2Cc2ccc(OC(F)F)cc2)n1 3.22

Look at this molecule and give its reported IC50. COc1ccc(Cn2c(=O)nc(NCc3cccnc3N)n(Cc3ccc(OC(C)(C)C)cc3)c2=O)cc1 0.186

Looking for the measured IC50 of COc1ccc(Cn2c(NCc3cccnc3N)nc(=O)n(Cc3ccc4sccc4c3)c2=O)cc1 , can you help? 0.317

Fill blank: measured IC50 of the molecule COc1ccc(Cn2c(OCc3cccnc3N)cc(=O)n(Cc3ccc(OC)cc3)c2=O)cc1 is ____. 0.502

Look up IC50 for this molecule: COc1ccc(Cn2c(NCc3cc(-c4ccccc4)cnc3N)nc(=O)n(Cc3ccc(OC)cc3)c2=O)cc1 4.77

====

study.system: GPR73 (prokineticin 1 receptor) (Homo sapiens, UniProt Q8TCW9)
Construct: expressed in transfected cells; host or cells: HEK 293
protocol.details: PK1 functional assay: Ca2+ mobilization screening for PK1 antagonists on the FLIPR
Type: cell-based
cond: HEK293, 10 μM compound; HEK 293 GPR73 cells; multiple values = multiple testing; read-out: Ca^2+ Mobilization % Inh @ 10 μM
reported.metric: inhibition at 10 µM
# output: numeric value plus its unit

Recall the recorded inhibition at 10 µM for COc1ccc(Cn2c(=O)nc(NCc3cnc(C)cc3C)n(Cc3cc4ccccc4o3)c2=O)cc1 [Cpd 102] with GPR73 (prokineticin 1 receptor) (Homo sapiens, UniProt Q8TCW9) and state it. 99%

Form field - read-out: inhibition at 10 µM; system: GPR73 (prokineticin 1 receptor) (Homo sapiens, UniProt Q8TCW9); submitted item: COc1ccc(Cn2c(NCc3ccc(C(F)(F)F)cn3)nc(=O)n(Cc3ccc(OC)cc3)c2=O)cc1 [Cpd 235] 98%

Identify the measured inhibition at 10 µM of COc1ccc(Cn2c(=O)nc(NCc3cccnc3N)n(Cc3ccc(OC(C)(C)C)cc3)c2=O)cc1 [Cpd 135] for GPR73 (prokineticin 1 receptor) (Homo sapiens, UniProt Q8TCW9). 94%

Observed inhibition at 10 µM on GPR73 (prokineticin 1 receptor) (Homo sapiens, UniProt Q8TCW9) for COc1ccc(Cn2c(NCc3cnc(C)cc3C)nc(=O)n(Cc3ccc4c(c3)nnn4C)c2=O)cc1 [Cpd 216] , please. 80%

Item: CCCCCCn1c(NCc2cnc(C)cc2C)nc(=O)n(Cc2ccc(OC)cc2)c1=O [Cpd 103] Test system: GPR73 (prokineticin 1 receptor) (Homo sapiens, UniProt Q8TCW9) Read-out: inhibition at 10 µM Value: ? 41%

GPR73 (prokineticin 1 receptor) (Homo sapiens, UniProt Q8TCW9) / inhibition at 10 µM / COc1ccc(Cn2c(NCc3cccnc3N)nc(=O)n(CCc3c[nH]c4ccccc34)c2=O)cc1 [Cpd 119] : value? 40%

Quick check: inhibition at 10 µM on GPR73 (prokineticin 1 receptor) (Homo sapiens, UniProt Q8TCW9), item COCCNc1ncccc1CNc1nc(=O)n(Cc2ccc(OC)cc2)c(=O)n1Cc1ccc(OC)cc1 [Cpd 50] ? 91%

Record COc1ccc(Cn2c(NCc3cnc(C)cc3C)nc(=O)n(Cc3ccccc3OC)c2=O)cc1 [Cpd 144] : what is its inhibition at 10 µM with GPR73 (prokineticin 1 receptor) (Homo sapiens, UniProt Q8TCW9)? 36%

Quick check: inhibition at 10 µM on GPR73 (prokineticin 1 receptor) (Homo sapiens, UniProt Q8TCW9), item COc1ccc(Cn2c(=O)nc(NCc3cccnc3N)n(Cc3ccc(OC)c(F)c3)c2=O)cc1 [Cpd 203] ? 103%

Value wanted: inhibition at 10 µM (GPR73 (prokineticin 1 receptor) (Homo sapiens, UniProt Q8TCW9)) of entry COc1ccc(Cn2c(NCc3cccnc3NC3CCCCC3)nc(=O)n(Cc3ccc(F)cc3)c2=O)cc1 [Cpd 31] 91%

Short answer please: inhibition at 10 µM, GPR73 (prokineticin 1 receptor) (Homo sapiens, UniProt Q8TCW9), entry COc1ccc(Cn2c(NCc3cccc(C)n3)nc(=O)n(Cc3ccc(OC)cc3)c2=O)cc1 [Cpd 267] 10%

# get_value(readout= inhibition at 10 µM, system= GPR73 (prokineticin 1 receptor) (Homo sapiens, UniProt Q8TCW9)) for COc1ccc(Cn2c(NCc3cccnc3N)nc(=O)n(Cc3cc4ccccc4o3)c2=O)cc1 [Cpd 23] 97%

Fill in the recorded inhibition at 10 µM for this molecule, with GPR73 (prokineticin 1 receptor) (Homo sapiens, UniProt Q8TCW9) as test system: Cc1cc(C)c(CNc2nc(=O)n(Cc3ccc4sccc4c3)c(=O)n2Cc2ccc(OC(F)F)cc2)c(N)n1 [Cpd 174] 87%

Given the entry COc1ccc(Cn2c(=O)nc(NCc3cccnc3N)n(Cc3ccc(S(C)(=O)=O)cc3)c2=O)cc1 [Cpd 131] , what inhibition at 10 µM was observed with GPR73 (prokineticin 1 receptor) (Homo sapiens, UniProt Q8TCW9)? 100%

Find the measured inhibition at 10 µM: item COc1ccc(Cn2c(=O)nc(NCc3cccnc3N)n(Cc3cccc(OC(F)(F)F)c3)c2=O)cc1 [Cpd 98] , target or system GPR73 (prokineticin 1 receptor) (Homo sapiens, UniProt Q8TCW9). 77%

Recorded inhibition at 10 µM for CSc1ccc(Cn2c(=O)nc(NCc3c(C)cc(C)nc3N)n(Cc3ccc(OC(F)F)cc3)c2=O)cc1 [Cpd 173] with GPR73 (prokineticin 1 receptor) (Homo sapiens, UniProt Q8TCW9), please? 97%

====

Please respond with reported IC50 for every item in the list.
study.system: GPR73 (prokineticin 1 receptor) (Homo sapiens, UniProt Q8TCW9)
protocol.details: PK1 functional assay: Ca2+ mobilization screening for PK1 antagonists on the FLIPR
cond: HEK 293 GPR73 cells; PK1 ligand preparation at its EC50; multiple values = multiple testing; read-out: Ca^2+ Mobilization IC50

Recorded IC50 of COc1ccc(Cn2c(=O)nc(NCc3cccnc3N)n(Cc3ccc(OC)cc3F)c2=O)cc1 , please. 106 nM

Would you mind telling me what IC50 value was observed for COc1ccc(Cn2c(=O)nc(NCc3cccnc3N)n(Cc3ccc(OC)c(F)c3)c2=O)cc1 ? 60 nM

What does the data say about its IC50? Entry: COc1ccc(Cn2c(NCc3c(N)nc(C)c(C)c3C)nc(=O)n(Cc3ccc(OC)cc3)c2=O)cc1 94 nM

Suppose we examine the compound COc1ccc(Cn2c(SCc3cccnc3N)cc(=O)n(Cc3ccc(OC)cc3)c2=O)cc1 ; what IC50 value has been reported? 194 nM

Quick check: IC50 of COC(=O)c1ccc(Cn2c(=O)nc(NCc3cccnc3N)n(Cc3ccc(OC)cc3)c2=O)cc1 ? > 10000 nM

Recorded IC50 of COc1ccc(Cn2c(=O)nc(NCc3cnc(C)cc3C)n(Cc3ccc4occc4c3)c2=O)cc1 , please. 120 nM

Requested field: IC50. Item: COc1ccc(Cn2c(=O)nc(NCc3cccnc3N)n(Cc3ccccc3C#N)c2=O)cc1 > 10000 nM

For the compound shown here, COc1ccc(Cn2c(NCc3cccnc3N)nc(=O)n(Cc3ccccc3OC)c2=O)cc1 , give the reported IC50. > 10000 nM

Reported IC50 for Cc1cc(C)c(CNc2nc(=O)n(Cc3ccc(CO)cc3)c(=O)n2Cc2ccc(OC(F)F)cc2)cn1 : what is it? 8370 nM

Give the measured IC50 of COc1ccc(Cn2c(NCc3cnccc3C)nc(=O)n(Cc3ccc(OC)cc3)c2=O)cc1 . 327 nM

Can you share its IC50? I mean this compound: COc1ccc(Cn2c(=O)nc(NCc3cnc(C)cc3C)n(Cc3ccc4[nH]ccc4c3)c2=O)cc1 245 nM

Which IC50 is reported for this compound? Cc1cc(CO)c(CNc2nc(=O)n(Cc3ccc4c(c3)CCO4)c(=O)n2Cc2ccc(OC(F)F)cc2)c(N)n1 225 nM

Quick one: IC50 for COc1ccc(Cn2c(NCc3cnc(C)nc3N)nc(=O)n(Cc3ccc(OC)cc3)c2=O)cc1 ? 34 nM

Given COc1ccc(Cn2c(NCc3cncnc3N)nc(=O)n(Cc3ccc(OC)cc3)c2=O)cc1 , state its recorded IC50. 176 nM

Quick one: IC50 of COc1ccc(Cn2c(NCc3cccnc3N)nc(=O)n(Cc3ccccc3)c2=O)cc1 ? 801 nM

Requested read-out: IC50. Entry: COc1ccc(Cn2c(=O)nc(NCc3cnc(C)cc3C)n(Cc3ccc(S(C)(=O)=O)cc3)c2=O)cc1 247 nM

Item COc1ccc(Cn2c(NCc3cccnc3)nc(=O)n(Cc3ccc(Cl)c(Cl)c3)c2=O)cc1 has what recorded IC50? > 10000 nM

IC50 lookup needed for COc1ccc(Cn2c(=O)nc(NCc3cccnc3N)n(Cc3ccc(OC)cc3OC)c2=O)cc1 , thanks. 304 nM

Please report the recorded IC50 for COc1ccc(Cn2c(NCc3ncccc3C)nc(=O)n(Cc3ccc(OC)cc3)c2=O)cc1 . > 10000 nM

Endpoint output: IC50 of COc1ccc(Cn2c(=O)nc(NCc3cnc(C)cc3C)n(Cc3cccc4cc[nH]c34)c2=O)cc1 . Value? 515 nM

Query (compound): COc1ccc(Cn2c(NCc3cccc(C)n3)nc(=O)n(Cc3ccc(OC)cc3)c2=O)cc1 ; field requested: IC50 > 10000 nM

Looking for the measured IC50 of COCCCCCn1c(NCc2c(C)cc(C)nc2N)nc(=O)n(Cc2ccc(Cl)cc2)c1=O , can you help? 9 nM

Find the recorded IC50 belonging to COc1ccc(Cn2c(NCc3ccc(N)cn3)nc(=O)n(Cc3ccc(Cl)cc3)c2=O)cc1 and report it. 357 nM

Recorded IC50 of COc1ccc(Cn2c(=O)nc(NCc3cnc(C)cc3C)n(Cc3ccccc3OC(F)(F)F)c2=O)cc1 , please. 437 nM

Can you share its IC50? I mean this compound: COc1ccc(Cn2c(NCc3cccnc3N)nc(=O)n(Cc3ccc(I)cc3)c2=O)cc1 817 nM

// lookup IC50 for COC(=O)c1ccc(Cn2c(NCc3cccnc3N)nc(=O)n(Cc3ccc(OC)cc3)c2=O)cc1 270 nM

# input compound: COc1ccc(Cn2c(NCc3cc4ccccc4nc3N)nc(=O)n(Cc3ccc(OC)cc3)c2=O)cc1 ; wanted: its IC50 295 nM

Need IC50 of COc1ccc(Cn2c(=O)nc(NCc3cccnc3N)n(CC3CCC(OC)CC3)c2=O)cc1 (stereo not drawn) , thanks. 788 nM

Which value of IC50 has been reported for COc1ccc(Cn2c(CCc3cccc(N)n3)cc(=O)n(Cc3ccc(OC)cc3)c2=O)cc1 in the records? 5680 nM

Can you share its IC50? I mean this compound: COc1ccc(Cn2c(NCc3ccc(C)nc3)nc(=O)n(Cc3ccc(OC)cc3)c2=O)cc1 178 nM

What does the data say about its IC50? Entry: CCN1CCCC1CNc1ncccc1CNc1nc(=O)n(Cc2ccc(OC)cc2)c(=O)n1Cc1ccc(OC)cc1 (stereo not drawn) 560 nM

Field request: IC50 | item: COc1ccc(Cn2c(=O)nc(NCc3cccnc3N)n(Cc3ccc(NC(C)=O)cc3)c2=O)cc1 250 nM

What value of IC50 has been reported for the following compound? COc1ccc(Cn2c(CCc3cnccc3N)cc(=O)n(Cc3ccc(OC)cc3)c2=O)cc1 7160 nM
